Task for the reader: assign each of the following compounds its reported percent helicity.
assay: Far-UV circular dichroism, percent helicity; assay type: physicochemical; conditions: CD in trifluoroethanol at 25 °C, from mean residue ellipticity at 208 nm
*1 amine or outer side, *2 acyl side, *3 side chain or, on linkers, in order; H or OH if unused. Where a SMILES comes first, the peptide text is derived from it. Bridges are numbered along the chain shown (N, C = ends). [ ]: non-standard residue; d: D form. X1 = CN(C)c1ccc(N2N=C(C(=O)[*:2])CC2(C)C(=O)[*:1])cc1; X5 = COc1ccc(N2N=C(C(=O)[*:2])CC2(C)C(=O)[*:1])cc1; X4 = CC1(C(=O)[*:1])CC(C(=O)[*:2])=NN1c1ccccc1; Aib = CC(C)(N)C(=O)O
Answers are plain numbers, in %.

Example compounds with recorded percent helicity:
CC(=O)N[C@H](C(=O)N[C@H]1CCCCNC(=O)C2(C)CC(=NN2c2ccccc2)C(=O)NCCCC[C@@H](C(=O)N[C@@H](CC(C)C)C(N)=O)NC(=O)[C@H](C(C)C)NC(=O)C(C)(C)NC(=O)[C@H](CC(C)C)NC1=O)C(C)C (stereo partly shown) [Peptide 11] (Ac-VKL[Aib]VKL-NH2; linker 2-6 via X4) ... 51
CC(=O)N[C@H](C(=O)N[C@H]1CCCCNC(=O)C2(C)CC(=NN2c2ccc(N(C)C)cc2)C(=O)NCCCC[C@@H](C(=O)N[C@@H](CC(C)C)C(N)=O)NC(=O)[C@H](C(C)C)NC(=O)C(C)(C)NC(=O)[C@H](CC(C)C)NC1=O)C(C)C (stereo partly shown) [Peptide 16] (Ac-VKL[Aib]VKL-NH2; linker 2-6 via X1) ... 64
CC(=O)NCCCC[C@H](NC(=O)[C@@H](NC(C)=O)C(C)C)C(=O)N[C@@H](CC(C)C)C(=O)NC(C)(C)C(=O)N[C@H](C(=O)N[C@@H](CCCCNC(C)=O)C(=O)N[C@@H](CC(C)C)C(N)=O)C(C)C [Peptide 17, reference compound] (Ac-VK(Ac)L[Aib]VK(Ac)L-NH2) ... 53

Moving on to the next compound.
Query: Given the compound COc1ccc(N2N=C3CC2(C)C(=O)NCCCC[C@H](NC(=O)[C@@H](NC(C)=O)C(C)C)C(=O)N[C@@H](CC(C)C)C(=O)NC(C)(C)C(=O)N[C@@H](C(C)C)C(=O)N[C@H](C(=O)N[C@@H](CC(C)C)C(N)=O)CCCCNC3=O)cc1 (stereo partly shown) [Peptide 14] (Ac-VKL[Aib]VKL-NH2; linker 2-6 via X5) , what is its reported percent helicity?
Reply: 51

###

conditions: the molecule shown is the open-chain precursor; other bond; 28-membered ring; hv 302 nm (tetrazole-alkene photocycloaddition); MeCN; 0.15 mM
measured_parameter: ring closure, yield after HPLC

Past entries and their recorded results:
Ac-Val-Lys(acryloyl)-Leu-Aib-Val-Lys(2-(4-methoxyphenyl)-2H-tetrazole-5-carbonyl)-Leu-NH2? ... 64%
Ac-Val-Lys(acryloyl)-Leu-Aib-Val-Lys(2-(4-dimethylaminophenyl)-2H-tetrazole-5-carbonyl)-Leu-NH2? ... 64%
Ac-Val-Lys(methacryloyl)-Leu-Aib-Val-Lys(2-phenyl-2H-tetrazole-5-carbonyl)-Leu-NH2? ... 41%
Ac-Val-Lys(methacryloyl)-Leu-Aib-Val-Lys(2-(4-methoxyphenyl)-2H-tetrazole-5-carbonyl)-Leu-NH2? ... 53%

# input for lookup
Query: Reported ring closure, yield after HPLC for Ac-Val-Lys(methacryloyl)-Leu-Aib-Val-Lys(2-(4-dimethylaminophenyl)-2H-tetrazole-5-carbonyl)-Leu-NH2? : what is it?
Reply: 94%
